test system: NCI-H2085; experiment: relative viability (nuclei count vs DMSO), 5 days (fraction); higher = more cells survive; conditions: first compound 0.01 µM

COMPOUND	relative viability
CCN(CC)CCCCNc1ncc2cc(-c3cc(OC)cc(OC)c3)c(NC(=O)NC(C)(C)C)nc2n1 + CCNC(=O)c1noc(-c2cc(C(C)C)c(O)cc2O)c1-c1ccc(CN2CCOCC2)cc1 [Luminespib] (partner 0.01 µM)	0.419
CCN(CC)CCCCNc1ncc2cc(-c3cc(OC)cc(OC)c3)c(NC(=O)NC(C)(C)C)nc2n1 + Cc1cc(Nc2cc(N3CCN(C)CC3)nc(Sc3ccc(NC(=O)C4CC4)cc3)n2)n[nH]1 [Tozasertib] (partner 0.1 µM)	0.819

----------
test system: LK-2; assay: relative viability (nuclei count vs DMSO), 5 days (fraction); higher = more cells survive; conditions: first compound 20 µM
Reported relative viability values follow for various compounds
EXPERIMENTAL ENDPOINT: relative viability

COMPOUND	EXPERIMENTAL ENDPOINT	OBS VALUE
COCC1(CO)C(=O)C2CCN1CC2 (stereo not drawn) [PRIMA-1MET] + COc1cccc2cc(-c3nc([C@H]4CC[C@H](C(=O)O)CC4)n4ncnc(N)c34)[nH]c12 [OSI-027] (partner 0.5 µM)	relative viability	0.118
COCC1(CO)C(=O)C2CCN1CC2 (stereo not drawn) [PRIMA-1MET] + Cc1nc(Nc2ncc(C(=O)Nc3c(C)cccc3Cl)s2)cc(N2CCN(CCO)CC2)n1 [Dasatinib] (partner 0.075 µM)	relative viability	0.116
COCC1(CO)C(=O)C2CCN1CC2 (stereo not drawn) [PRIMA-1MET] + O=C(c1cc(Cc2n[nH]c(=O)c3ccccc23)ccc1F)N1CCN(C(=O)C2CC2)CC1 [Olaparib] (partner 8 µM)	relative viability	0.0842

----------
Reported relative viability values follow for various molecules
tested on: NCI-H1734; assay: relative viability (nuclei count vs DMSO), 5 days (fraction); higher = more cells survive; conditions: first compound 0.08 µM
EXPERIMENTAL ENDPOINT: relative viability

MOLECULE	OBS VALUE
COc1nc(C)cnc1NS(=O)(=O)c1cccnc1-c1ccc(-c2nnco2)cc1 [Zibotentan] + NC(=O)Nc1cc(-c2cccc(F)c2)sc1C(=O)N[C@H]1CCCNC1 [AZD7762] (partner 0.2 µM)	0.629
COc1nc(C)cnc1NS(=O)(=O)c1cccnc1-c1ccc(-c2nnco2)cc1 [Zibotentan] + O=C(c1cc(Cc2n[nH]c(=O)c3ccccc23)ccc1F)N1CCN(C(=O)C2CC2)CC1 [Olaparib] (partner 8 µM)	0.593
O=c1cc(-c2cccc3c2Sc2ccccc2S3)oc(N2CCOCC2)c1 + Cc1cc(Nc2cc(N3CCN(C)CC3)nc(Sc3ccc(NC(=O)C4CC4)cc3)n2)n[nH]1 [Tozasertib] (partner 0.1 µM)	0.271
COc1nc(C)cnc1NS(=O)(=O)c1cccnc1-c1ccc(-c2nnco2)cc1 [Zibotentan] + Cc1cc(Nc2cc(N3CCN(C)CC3)nc(Sc3ccc(NC(=O)C4CC4)cc3)n2)n[nH]1 [Tozasertib] (partner 0.1 µM)	0.283
O=c1cc(-c2cccc3c2Sc2ccccc2S3)oc(N2CCOCC2)c1 + O=C(c1cc(Cc2n[nH]c(=O)c3ccccc23)ccc1F)N1CCN(C(=O)C2CC2)CC1 [Olaparib] (partner 8 µM)	0.628
COc1nc(C)cnc1NS(=O)(=O)c1cccnc1-c1ccc(-c2nnco2)cc1 [Zibotentan] + COc1cccc2cc(-c3nc([C@H]4CC[C@H](C(=O)O)CC4)n4ncnc(N)c34)[nH]c12 [OSI-027] (partner 0.5 µM)	0.655
COc1nc(C)cnc1NS(=O)(=O)c1cccnc1-c1ccc(-c2nnco2)cc1 [Zibotentan] + CC(C)C[C@H](NC(=O)[C@H](Cc1ccccc1)NC(=O)c1cnccn1)B(O)O [Bortezomib] (partner 0.002 µM)	1.1

All values here come from the supplement of paper PMC10307832.
